These data points were gathered from patent US20250368647A1.

- Target under test: human Nav1.8 (Homo sapiens (Human))
- Sequence (Q9Y5Y9 whole entry): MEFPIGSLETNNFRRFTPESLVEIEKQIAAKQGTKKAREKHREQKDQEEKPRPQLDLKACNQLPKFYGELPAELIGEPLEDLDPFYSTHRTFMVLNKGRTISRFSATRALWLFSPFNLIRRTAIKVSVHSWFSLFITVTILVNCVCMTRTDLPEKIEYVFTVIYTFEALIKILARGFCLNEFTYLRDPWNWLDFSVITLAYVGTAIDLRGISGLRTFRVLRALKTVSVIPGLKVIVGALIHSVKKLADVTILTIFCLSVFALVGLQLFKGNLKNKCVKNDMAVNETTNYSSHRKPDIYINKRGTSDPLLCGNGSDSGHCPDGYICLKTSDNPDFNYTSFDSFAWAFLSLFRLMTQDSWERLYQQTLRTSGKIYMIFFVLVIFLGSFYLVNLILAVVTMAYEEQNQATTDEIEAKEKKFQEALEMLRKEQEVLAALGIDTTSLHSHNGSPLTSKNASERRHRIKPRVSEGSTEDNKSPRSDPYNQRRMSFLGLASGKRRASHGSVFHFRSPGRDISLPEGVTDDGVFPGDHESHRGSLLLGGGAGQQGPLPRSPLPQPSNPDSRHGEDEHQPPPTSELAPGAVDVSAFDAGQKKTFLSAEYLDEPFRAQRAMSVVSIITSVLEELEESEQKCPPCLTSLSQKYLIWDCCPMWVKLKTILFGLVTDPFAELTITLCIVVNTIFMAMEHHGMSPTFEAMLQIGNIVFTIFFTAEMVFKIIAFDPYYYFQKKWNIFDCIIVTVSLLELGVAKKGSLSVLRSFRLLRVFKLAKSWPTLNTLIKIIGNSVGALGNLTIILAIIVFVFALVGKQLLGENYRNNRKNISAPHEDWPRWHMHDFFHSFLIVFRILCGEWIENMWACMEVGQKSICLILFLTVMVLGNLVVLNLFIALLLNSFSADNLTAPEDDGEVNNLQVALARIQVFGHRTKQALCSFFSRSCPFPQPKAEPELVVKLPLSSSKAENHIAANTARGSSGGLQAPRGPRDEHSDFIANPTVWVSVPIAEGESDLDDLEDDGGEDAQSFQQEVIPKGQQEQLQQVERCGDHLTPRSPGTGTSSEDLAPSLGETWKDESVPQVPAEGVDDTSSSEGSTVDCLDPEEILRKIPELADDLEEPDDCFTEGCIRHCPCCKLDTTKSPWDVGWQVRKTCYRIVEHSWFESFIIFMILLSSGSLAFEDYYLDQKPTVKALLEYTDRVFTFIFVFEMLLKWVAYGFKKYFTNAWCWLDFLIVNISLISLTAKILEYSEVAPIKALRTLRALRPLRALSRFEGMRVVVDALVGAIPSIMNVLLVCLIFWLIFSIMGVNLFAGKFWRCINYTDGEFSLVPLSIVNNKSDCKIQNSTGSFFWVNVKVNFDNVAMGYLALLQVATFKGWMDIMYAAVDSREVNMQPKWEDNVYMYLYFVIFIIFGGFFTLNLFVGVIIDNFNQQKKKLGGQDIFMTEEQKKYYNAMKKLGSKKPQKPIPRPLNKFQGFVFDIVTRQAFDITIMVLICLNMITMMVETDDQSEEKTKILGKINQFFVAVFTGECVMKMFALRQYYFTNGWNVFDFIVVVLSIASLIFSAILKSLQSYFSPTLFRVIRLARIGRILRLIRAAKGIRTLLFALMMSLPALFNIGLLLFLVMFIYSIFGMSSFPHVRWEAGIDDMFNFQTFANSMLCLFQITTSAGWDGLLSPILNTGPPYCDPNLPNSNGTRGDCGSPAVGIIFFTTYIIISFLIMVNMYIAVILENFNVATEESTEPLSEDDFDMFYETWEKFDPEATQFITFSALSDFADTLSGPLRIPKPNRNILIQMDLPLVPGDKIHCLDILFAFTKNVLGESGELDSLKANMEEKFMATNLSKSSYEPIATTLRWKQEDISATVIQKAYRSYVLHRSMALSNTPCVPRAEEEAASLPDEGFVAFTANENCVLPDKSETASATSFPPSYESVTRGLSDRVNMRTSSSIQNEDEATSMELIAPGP
- Sequence (Q07699 19-218 partner): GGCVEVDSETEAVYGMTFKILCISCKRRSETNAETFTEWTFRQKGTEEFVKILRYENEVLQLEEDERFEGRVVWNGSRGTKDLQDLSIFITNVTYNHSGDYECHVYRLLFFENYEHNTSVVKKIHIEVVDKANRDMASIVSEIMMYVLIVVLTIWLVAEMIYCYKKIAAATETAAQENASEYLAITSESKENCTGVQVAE
- Protocol: QPatch 48 HTX voltage-clamp electrophysiology, half inactivation state (V1/2) protocol, HEK293-Nav1.8 cells
- Assay type: cell-based
- Conditions: HEK293 cells expressing human Nav1.8, human Navβ1 and human TREK1, P2 current, read-out: Nav1.8, pIC50 (converted)
Counter-ions that a name gives are not always drawn.
Readout: IC50 (nM)

{"Compound": "C[C@@H]1CCNc2[nH]c(=O)ccc2N2CN(c3cc(C(F)(F)F)c(F)cc3C2=O)c2ccc(F)c(F)c21", "IC50 [nM]": 39.8}

P: Cc1c(F)ccc2c1CNCCc1[nH]c(=O)ccc1N1CN2c2cc(C(F)(F)F)c(F)cc2C1=O [Example 61, hydrochloride]
Q: CC1Cc2[nH]c(=O)ccc2N2CN(c3ccc(F)cc3CN1)c1cc(C(F)(F)F)c(F)cc1C2=O (single isomer, unassigned; isomer 1) [Example 124]
Query string: Compare reported IC50 values for P and Q . Which is lower? Output the label that corresponds to your choice.
Result string: P
